Below, each of the compounds is paired with its reported inhibition at 30 µM value.
Target: human wild-type (WT)-pendrin (Homo sapiens, UniProt O43511)
Construct: expressed in transfected cells
Sequence (O43511 whole entry): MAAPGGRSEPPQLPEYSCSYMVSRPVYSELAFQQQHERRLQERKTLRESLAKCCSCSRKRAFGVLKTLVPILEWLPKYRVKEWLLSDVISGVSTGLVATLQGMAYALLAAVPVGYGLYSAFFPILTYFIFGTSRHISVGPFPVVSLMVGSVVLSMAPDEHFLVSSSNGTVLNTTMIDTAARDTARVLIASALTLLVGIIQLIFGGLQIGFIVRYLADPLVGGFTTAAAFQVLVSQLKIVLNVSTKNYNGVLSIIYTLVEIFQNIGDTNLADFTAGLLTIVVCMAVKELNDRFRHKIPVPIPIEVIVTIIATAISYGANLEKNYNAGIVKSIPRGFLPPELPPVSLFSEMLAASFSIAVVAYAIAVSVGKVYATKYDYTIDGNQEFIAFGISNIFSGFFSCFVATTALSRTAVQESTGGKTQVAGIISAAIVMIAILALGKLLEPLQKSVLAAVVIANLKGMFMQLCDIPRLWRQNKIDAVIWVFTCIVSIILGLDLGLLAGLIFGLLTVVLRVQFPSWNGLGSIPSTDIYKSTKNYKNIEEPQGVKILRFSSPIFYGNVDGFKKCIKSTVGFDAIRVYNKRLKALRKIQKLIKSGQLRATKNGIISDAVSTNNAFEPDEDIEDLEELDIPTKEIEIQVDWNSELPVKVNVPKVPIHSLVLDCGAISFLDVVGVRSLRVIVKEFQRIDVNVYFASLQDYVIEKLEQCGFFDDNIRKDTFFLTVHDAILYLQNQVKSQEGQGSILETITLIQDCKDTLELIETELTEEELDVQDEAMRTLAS
Experiment: Pendrin Cl−/I− exchange inhibitory activity, YFP fluorescence in CHO-K1 cells
Format: cell-based
Details: CHO-K1; compound concentration 30 μM
Give just the numeric value; % need not be written.

{"STRUCTURE SMILES STRING": "O=C(O)c1[nH]c2ccc(Cl)cc2c1CC(=O)N1CCN(c2ccc(Cl)cc2Cl)CC1", "inhibition at 30 µM, %": 89.5}
{"STRUCTURE SMILES STRING": "Cc1cccc(C)c1N1CCN(C(=O)Cc2c(C(=O)O)[nH]c3ccc(F)cc23)CC1", "inhibition at 30 µM, %": 88.9}

Proceeding to the next compound to report its inhibition at 30 µM.
Asked: Read the entry `O=C(O)c1[nH]c2ccc(Cl)cc2c1CC(=O)N1CCN(c2cc(Cl)c(Cl)c(Cl)c2)CC1` and write its reported inhibition at 30 µM.
Given back: 90.9

###

Target: human wild-type (WT)-pendrin (Homo sapiens, UniProt O43511)
Construct: expressed in transfected cells
Experiment: Pendrin Cl−/I− exchange inhibitory activity, YFP fluorescence in CHO-K1 cells
Assay type: cell-based
Conditions: CHO-K1; compound concentration 30 μM
MEASURED PARAMETER: inhibition at 30 µM (%)
Give just the numeric value; % need not be written.

Solved cases below.
{"STRUCTURE SMILES STRING": "Cc1cccc(N2CCN(C(=O)Cc3c(C(=O)O)[nH]c4ccc(Cl)cc34)CC2)c1", "MEASURED PARAMETER": "inhibition at 30 µM", "UNIT NAME": "%", "NUMERIC RESULT": 58.9}
{"STRUCTURE SMILES STRING": "Cc1c(Cl)cccc1N1CCN(C(=O)Cc2c(C(=O)O)[nH]c3ccc(Cl)cc23)CC1", "MEASURED PARAMETER": "inhibition at 30 µM", "UNIT NAME": "%", "NUMERIC RESULT": 94.8}
{"STRUCTURE SMILES STRING": "Cc1ccc2[nH]c(C(=O)O)c(CC(=O)N3CCN(c4c(C)cccc4Cl)CC3)c2c1", "MEASURED PARAMETER": "inhibition at 30 µM", "UNIT NAME": "%", "NUMERIC RESULT": 100}
{"STRUCTURE SMILES STRING": "Cc1ccc2[nH]c(C(=O)O)c(CC(=O)N3CCN(c4c(C)cccc4C)CC3)c2c1", "MEASURED PARAMETER": "inhibition at 30 µM", "UNIT NAME": "%", "NUMERIC RESULT": 94.5}
{"STRUCTURE SMILES STRING": "CC(C)(C)c1ccc(N2CCN(C(=O)Cc3c(C(=O)O)[nH]c4ccc(Cl)cc34)CC2)cc1", "MEASURED PARAMETER": "inhibition at 30 µM", "UNIT NAME": "%", "NUMERIC RESULT": 81.9}
{"STRUCTURE SMILES STRING": "Cc1ccc(N2CCN(C(=O)Cc3c(C(=O)O)[nH]c4ccc(Cl)cc34)CC2)cc1", "MEASURED PARAMETER": "inhibition at 30 µM", "UNIT NAME": "%", "NUMERIC RESULT": 90.9}
{"STRUCTURE SMILES STRING": "O=C(O)c1[nH]c2ccc(Cl)cc2c1CC(=O)N1CCN(c2cccc(Br)c2)CC1", "MEASURED PARAMETER": "inhibition at 30 µM", "UNIT NAME": "%", "NUMERIC RESULT": 88.8}

Proceeding to the next compound to report its inhibition at 30 µM.
Asked: Read the entry `O=C(O)c1[nH]c2ccc(Cl)cc2c1CC(=O)N1CCN(c2ccccc2Br)CC1` and write its reported inhibition at 30 µM.
Given back: 92.5
